molecular target: gelatinase B (MMP-9) (Homo sapiens, UniProt P14780); construct: purchased Boehringer Manneheim 1758896; host or cells: human blood (natural source); assay: In vitro inhibition on gelatinase B (MMP-9), fluorescent synthetic peptide substrate; assay type: biochemical; conditions: Table 1
Sequence (P14780 107-707 limits assumed): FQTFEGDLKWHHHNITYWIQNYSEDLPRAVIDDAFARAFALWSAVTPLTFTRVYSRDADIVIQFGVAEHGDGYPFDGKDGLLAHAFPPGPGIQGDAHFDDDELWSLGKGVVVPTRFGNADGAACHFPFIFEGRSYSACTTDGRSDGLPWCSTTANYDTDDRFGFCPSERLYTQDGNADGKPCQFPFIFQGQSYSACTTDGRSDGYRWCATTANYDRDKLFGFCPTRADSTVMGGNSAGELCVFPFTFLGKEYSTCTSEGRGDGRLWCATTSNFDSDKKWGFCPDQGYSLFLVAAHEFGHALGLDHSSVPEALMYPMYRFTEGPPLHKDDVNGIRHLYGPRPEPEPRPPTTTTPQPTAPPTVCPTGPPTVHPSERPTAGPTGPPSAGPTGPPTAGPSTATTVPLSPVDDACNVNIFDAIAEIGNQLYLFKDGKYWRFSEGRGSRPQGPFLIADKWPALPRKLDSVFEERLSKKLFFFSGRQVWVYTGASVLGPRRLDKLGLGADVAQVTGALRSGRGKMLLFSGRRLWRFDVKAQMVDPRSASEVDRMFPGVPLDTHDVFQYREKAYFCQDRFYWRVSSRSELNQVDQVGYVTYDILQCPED
readoutLabel: IC50 (nM)
Just the number in nM, nothing appended.

CCCCSc1nc2ccc(S(=O)(=O)N(Cc3ccccc3)[C@@H](C(=O)O)C(C)C)cc2s1 [Number 41] = 700

Requested field: IC50. Item: COc1ccc(CSc2nc3ccc(S(=O)(=O)N[C@@H](C(=O)O)C(C)C)cc3s2)cc1 [Number 73] 420

Field entry: CC(C)[C@@H](NS(=O)(=O)c1ccc2nc(SCCCC3CCCCC3)sc2c1)C(=O)NO [Number 66] 5.8

Now try CC(C)[C@@H](NS(=O)(=O)c1ccc2nc(SC3CCCC3)sc2c1)C(=O)O [Number 67] . 8250

* * *

List of IC50 values.
molecular target: gelatinase B (MMP-9) (Homo sapiens, UniProt P14780); construct: purchased Boehringer Manneheim 1758896; host or cells: human blood (natural source); test: In vitro inhibition on gelatinase B (MMP-9), fluorescent synthetic peptide substrate; format: biochemical; conditions: Table 1
Could you give me the number in nM? Just the number is fine.

COc1ccc(Sc2nc3ccc(S(=O)(=O)N[C@@H](C(=O)O)C(C)C)cc3s2)cc1 = 740
Cc1ccc(Sc2nc3ccc(S(=O)(=O)N[C@@H](C(=O)NO)C(C)C)cc3s2)cc1 = 2

May I ask what IC50 has been recorded for CC(C)[C@@H](NS(=O)(=O)c1ccc2nc(Sc3ccc(Br)cc3)sc2c1)C(=O)NO ? 28

* * *

IC50 by entry:
biological target: gelatinase A (MMP-2) (Homo sapiens, UniProt P08253); construct: purchased Boehringer Manneheim 1782916; host or cells: human fibrosarcoma cells (natural source); test: In vitro inhibition on gelatinase A (MMP-2), fluorescent synthetic peptide substrate; format: biochemical; details: Table 1
Sequence (P08253 110-660): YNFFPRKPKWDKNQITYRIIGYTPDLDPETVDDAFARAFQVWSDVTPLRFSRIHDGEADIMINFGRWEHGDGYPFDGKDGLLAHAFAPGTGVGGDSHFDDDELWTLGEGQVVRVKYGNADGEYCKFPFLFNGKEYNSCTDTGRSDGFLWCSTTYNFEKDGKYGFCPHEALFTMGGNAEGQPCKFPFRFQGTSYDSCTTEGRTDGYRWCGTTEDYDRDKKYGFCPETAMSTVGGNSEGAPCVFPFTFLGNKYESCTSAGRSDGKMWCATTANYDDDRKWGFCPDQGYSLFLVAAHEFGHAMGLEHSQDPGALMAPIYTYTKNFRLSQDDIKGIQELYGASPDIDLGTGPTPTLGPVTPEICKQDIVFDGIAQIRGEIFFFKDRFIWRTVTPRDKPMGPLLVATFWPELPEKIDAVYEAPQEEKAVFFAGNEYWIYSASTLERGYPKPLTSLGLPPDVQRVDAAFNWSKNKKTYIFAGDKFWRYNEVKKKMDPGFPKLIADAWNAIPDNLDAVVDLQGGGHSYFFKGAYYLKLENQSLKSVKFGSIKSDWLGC
# output: bare number, implied unit nM

CC(C)[C@@H](NS(=O)(=O)c1ccc2nc(SCCCC3CCCCC3)sc2c1)C(=O)NO = 0.7
COc1ccc(Sc2nc3ccc(S(=O)(=O)N[C@@H](C(=O)O)C(C)C)cc3s2)cc1 = 290
CCCCCCCCSc1nc2ccc(S(=O)(=O)N[C@@H](C(=O)NO)C(C)C)cc2s1 = 0.5
Cc1ccc(Sc2nc3ccc(S(=O)(=O)N[C@@H](C(=O)NO)C(C)C)cc3s2)cc1 = 0.74
CCCCCCCCSc1nc2ccc(S(=O)(=O)N(Cc3ccccc3)[C@@H](C(=O)NO)C(C)C)cc2s1 = 28
CC(C)[C@@H](NS(=O)(=O)c1ccc2nc(Sc3ccccc3)sc2c1)C(=O)NO = 0.6

I am curious: what IC50 value has been reported for COc1ccc(Sc2nc3ccc(S(=O)(=O)N[C@@H](C(=O)NO)C(C)C)cc3s2)cc1 ? 0.2

Proceed to CC(C)[C@@H](NS(=O)(=O)c1ccc2nc(SCC3CCCCC3)sc2c1)C(=O)O 9.3

* * *

biological target: gelatinase B (MMP-9) (Homo sapiens); construct: purchased Boehringer Manneheim 1758896; host or cells: human blood (natural source); test: In vitro inhibition on gelatinase B (MMP-9), fluorescent synthetic peptide substrate; type: biochemical; conditions: Table 1
// values below are reported IC50
Lab book: enter the figure in nM, no units written.

COc1ccc(Sc2nc3ccc(S(=O)(=O)N[C@@H](C(=O)NO)C(C)C)cc3s2)cc1 = 0.2
CC(C)[C@@H](NS(=O)(=O)c1ccc2nc(Sc3ccccc3)sc2c1)C(=O)NO = 2.3
Cc1ccc(Sc2nc3ccc(S(=O)(=O)N[C@@H](C(=O)O)C(C)C)cc3s2)cc1 = 1710

Given the entry CC(C)[C@@H](NS(=O)(=O)c1ccc2nc(SCC3CCCCC3)sc2c1)C(=O)O , what IC50 was observed with gelatinase B (MMP-9) (Homo sapiens)? 202

* * *

molecular target: gelatinase B (MMP-9) (Homo sapiens); construct: purchased Boehringer Manneheim 1758896; host or cells: human blood (natural source); assay: In vitro inhibition on gelatinase B (MMP-9), fluorescent synthetic peptide substrate; assay type: biochemical; conditions: Table 1
readoutLabel: IC50 (nM)
Response body: numeric value in nM, unit text excluded.

Some solved cases for reference:
CC(C)[C@@H](NS(=O)(=O)c1ccc2nc(SCCCc3ccccc3)sc2c1)C(=O)O = 3190
CC(C)[C@@H](NS(=O)(=O)c1ccc2nc(SCc3ccccc3)sc2c1)C(=O)NO = 0.7
CC(C)[C@@H](NS(=O)(=O)c1ccc2nc(SCc3ccc(Cl)cc3)sc2c1)C(=O)O = 79
CCCCCCCCCCCCSc1nc2ccc(S(=O)(=O)N[C@@H](C(=O)O)C(C)C)cc2s1 = 4210

Recorded IC50 of COc1ccc(CSc2nc3ccc(S(=O)(=O)N[C@@H](C(=O)NO)C(C)C)cc3s2)cc1 , please. 0.2

Also CCCCCCCCCCCCSc1nc2ccc(S(=O)(=O)N(Cc3ccccc3)[C@@H](C(=O)NO)C(C)C)cc2s1 , if possible. 27

Queued: CCCCCCCCSc1nc2ccc(S(=O)(=O)N[C@@H](C(=O)NO)C(C)C)cc2s1 3

What do we get for CC(C)[C@@H](NS(=O)(=O)c1ccc2nc(Sc3ccccc3)sc2c1)C(=O)O ? 1880

* * *

molecular target: gelatinase B (MMP-9) (Homo sapiens); construct: purchased Boehringer Manneheim 1758896; host or cells: human blood (natural source); assay: In vitro inhibition on gelatinase B (MMP-9), fluorescent synthetic peptide substrate; format: biochemical; details: Table 1
readoutLabel: IC50

CCCCCCCCSc1nc2ccc(S(=O)(=O)N(Cc3ccccc3)[C@@H](C(=O)NO)C(C)C)cc2s1 = 77 nM
CCCCCCCCCCCCSc1nc2ccc(S(=O)(=O)N[C@@H](C(=O)NO)C(C)C)cc2s1 = 77 nM
CCCCCCCCSc1nc2ccc(S(=O)(=O)N[C@@H](C(=O)O)C(C)C)cc2s1 = 764 nM

Turning now to a further record.
Field request: IC50 | item: CCCCc1ccc(Sc2nc3ccc(S(=O)(=O)N[C@@H](C(=O)O)C(C)C)cc3s2)cc1 660 nM

* * *

molecular target: collagenase (MMP-1) (Homo sapiens, UniProt P03956); construct: purchased AngioLab; Co., Ltd; test: In vitro inhibition on collagenase (MMP-1), fluorescent synthetic peptide substrate; assay type: biochemical; conditions: Table 1; read-out: IC50 (nM) MMP-1
Sequence (P03956 100-469, species assumed): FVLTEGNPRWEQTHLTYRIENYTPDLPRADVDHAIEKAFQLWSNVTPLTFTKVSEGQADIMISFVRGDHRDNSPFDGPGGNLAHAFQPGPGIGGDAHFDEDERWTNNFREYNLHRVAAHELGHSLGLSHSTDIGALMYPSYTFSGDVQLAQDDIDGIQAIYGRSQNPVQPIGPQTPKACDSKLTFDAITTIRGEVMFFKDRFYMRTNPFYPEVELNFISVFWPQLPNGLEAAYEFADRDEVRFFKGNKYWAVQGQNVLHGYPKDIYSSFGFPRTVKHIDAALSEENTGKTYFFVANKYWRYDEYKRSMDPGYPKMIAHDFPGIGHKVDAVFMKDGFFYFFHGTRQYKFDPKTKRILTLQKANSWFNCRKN
Readings of IC50 for the listed compounds
The answer consists of two parts: a number and, after it, its unit.

Find the recorded IC50 belonging to COc1ccc(Sc2nc3ccc(S(=O)(=O)N[C@@H](C(=O)NO)C(C)C)cc3s2)cc1 and report it. 13400 nM

Then what about the compound CC(C)[C@@H](NS(=O)(=O)c1ccc2nc(SCc3ccc(Cl)cc3)sc2c1)C(=O)NO ? 2330 nM

* * *

Overview of recorded IC50 for various molecules
target: gelatinase B (MMP-9) (Homo sapiens); construct: purchased Boehringer Manneheim 1758896; host or cells: human blood (natural source); experiment: In vitro inhibition on gelatinase B (MMP-9), fluorescent synthetic peptide substrate; assay type: biochemical; conditions: Table 1
Please respond with the number in nM and leave the unit unwritten.

CCCCCCCCSc1nc2ccc(S(=O)(=O)N(Cc3ccccc3)[C@@H](C(=O)O)C(C)C)cc2s1 = 5120
CC(C)[C@@H](NS(=O)(=O)c1ccc2nc(Sc3ccc(F)cc3)sc2c1)C(=O)O = 451
CC(C)[C@@H](NS(=O)(=O)c1ccc2nc(Sc3ccc(Br)cc3)sc2c1)C(=O)O = 930

Now for the molecule whose IC50 we want.
Report IC50 for CCCCc1ccc(Sc2nc3ccc(S(=O)(=O)N[C@@H](C(=O)NO)C(C)C)cc3s2)cc1 please. 2

* * *

target: gelatinase A (MMP-2) (Homo sapiens, UniProt P08253); construct: purchased Boehringer Manneheim 1782916; host or cells: human fibrosarcoma cells (natural source); assay: In vitro inhibition on gelatinase A (MMP-2), fluorescent synthetic peptide substrate; type: biochemical; settings: Table 1
Reported IC50 values are given for each entry in this list.
Your answer is read as nM, so omit the unit and give the number.

CCCCSc1nc2ccc(S(=O)(=O)N(Cc3ccccc3)[C@@H](C(=O)O)C(C)C)cc2s1 [Number 41] = 270

Form field - read-out: IC50; system: gelatinase A (MMP-2) (Homo sapiens, UniProt P08253); submitted item: COc1ccc(CSc2nc3ccc(S(=O)(=O)N[C@@H](C(=O)NO)C(C)C)cc3s2)cc1 [Number 74] 0.8

What would you report for COc1ccc(CSc2nc3ccc(S(=O)(=O)N[C@@H](C(=O)O)C(C)C)cc3s2)cc1 [Number 73] ? 36

Also, CCCCCCCCCCCCSc1nc2ccc(S(=O)(=O)N(Cc3ccccc3)[C@@H](C(=O)O)C(C)C)cc2s1 [Number 61] please. 23400

Likewise for CCCCCCCCCCCCSc1nc2ccc(S(=O)(=O)N[C@@H](C(=O)NO)C(C)C)cc2s1 [Number 60] ? 17

Now the same for CC(C)[C@@H](NS(=O)(=O)c1ccc2nc(SCc3ccc(Cl)cc3)sc2c1)C(=O)O [Number 71] 40

Likewise for CCCCc1ccc(Sc2nc3ccc(S(=O)(=O)N[C@@H](C(=O)NO)C(C)C)cc3s2)cc1 [Number 88] ? 0.6

Entry CC(C)[C@@H](NS(=O)(=O)c1ccc2nc(Sc3ccc(F)cc3)sc2c1)C(=O)O [Number 83] please 1430

Next entry: CCCCCCCCCCCCSc1nc2ccc(S(=O)(=O)N(Cc3ccccc3)[C@@H](C(=O)NO)C(C)C)cc2s1 [Number 62] 0.7

What about this compound? CC(C)[C@@H](NS(=O)(=O)c1ccc2nc(Sc3ccc(F)cc3)sc2c1)C(=O)NO [Number 84] 8.7

Proceed to CC(C)[C@@H](NS(=O)(=O)c1ccc2nc(SC3CCCC3)sc2c1)C(=O)O [Number 67] 690
